Cited source: patent US7148338B2

Molecular target: DPP8/V5/His (Homo sapiens, UniProt Q6V1X1)
Construct: the full length DPP8 cDNA of 3.1 kb was cloned into the Xba I site of pcDNA3.1A/V5/His expression vector; His tag (C); made in house; host or cells: COS-7 cells, stably transfected
Sequence (Q6V1X1 17-898 limits assumed): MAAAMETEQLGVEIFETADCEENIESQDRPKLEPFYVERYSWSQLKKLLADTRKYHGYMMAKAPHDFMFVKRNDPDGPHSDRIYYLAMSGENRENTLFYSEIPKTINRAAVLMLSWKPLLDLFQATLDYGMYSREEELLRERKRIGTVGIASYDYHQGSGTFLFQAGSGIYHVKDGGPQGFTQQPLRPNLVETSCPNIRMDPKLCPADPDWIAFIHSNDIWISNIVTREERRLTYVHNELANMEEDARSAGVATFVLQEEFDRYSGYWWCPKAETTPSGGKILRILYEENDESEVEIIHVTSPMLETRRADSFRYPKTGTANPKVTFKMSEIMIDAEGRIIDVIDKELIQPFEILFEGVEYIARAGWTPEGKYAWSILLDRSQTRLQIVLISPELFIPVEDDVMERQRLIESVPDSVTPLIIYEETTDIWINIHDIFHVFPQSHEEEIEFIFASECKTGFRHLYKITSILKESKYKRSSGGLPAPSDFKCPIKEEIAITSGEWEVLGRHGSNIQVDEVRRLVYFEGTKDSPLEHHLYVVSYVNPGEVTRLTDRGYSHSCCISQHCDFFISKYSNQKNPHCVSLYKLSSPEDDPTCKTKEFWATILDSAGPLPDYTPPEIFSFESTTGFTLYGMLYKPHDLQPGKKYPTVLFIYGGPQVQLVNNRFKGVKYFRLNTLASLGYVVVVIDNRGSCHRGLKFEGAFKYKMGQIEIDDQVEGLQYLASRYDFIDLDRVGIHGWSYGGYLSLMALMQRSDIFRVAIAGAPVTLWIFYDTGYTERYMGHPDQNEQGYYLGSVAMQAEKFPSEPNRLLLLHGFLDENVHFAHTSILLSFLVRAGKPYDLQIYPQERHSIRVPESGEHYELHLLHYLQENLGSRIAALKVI
Assay: Substrate hydrolysis by purified recombinant DPP8/V5/His
Assay type: biochemical
Residues, ends and D or L forms follow the SMILES beside them. *: point of attachment. pNA = O=[N+]([O-])c1ccc(N*)cc1
quantity: Hydrolysis (cleavage) of substrate by purified recombinant DPP8

These recorded examples may help you get a feel for the data.
INSERT INTO assay_data (compound, result) VALUES
  ('NCC(=O)N1CCC[C@H]1C(=O)Nc1ccc([N+](=O)[O-])cc1 [H-Gly-Pro-pNA, H-Gly-Pro-p-nitroanilide] (H-Gly-Pro-pNA)', 'hydrolyzed'),
  ('C[C@H](N)C(=O)N[C@@H](C)C(=O)N[C@@H](Cc1ccccc1)C(=O)Nc1ccc([N+](=O)[O-])cc1 [H-Ala-Ala-Phe-pNA] (H-Ala-Ala-Phe-pNA)', 'neither'),
  ('C[C@H](N)C(=O)N[C@@H](Cc1ccccc1)C(=O)N1CCC[C@H]1C(=O)Nc1ccc([N+](=O)[O-])cc1 [H-Ala-Phe-Pro-pNA] (H-Ala-Phe-Pro-pNA)', 'neither'),
  ('C[C@H](N)C(=O)N1CCC[C@H]1C(=O)Nc1ccc([N+](=O)[O-])cc1 [H-Ala-Pro-pNA] (H-Ala-Pro-pNA)', 'hydrolyzed');

What Hydrolysis (cleavage) of substrate by purified recombinant DPP8 value was documented for this compound, NC(N)=NCCC[C@H](N)C(=O)N1CCC[C@H]1C(=O)Nc1ccc([N+](=O)[O-])cc1 [H-Arg-Pro-pNA] (H-Arg-Pro-pNA) ? hydrolyzed

---

Molecular target: DPP8 (Homo sapiens)
Sequence (Q6V1X1 17-898 limits assumed): as above
Experiment: Substrate hydrolysis by extracts of DPP8-transfected COS-7 cells
Type: biochemical
Design: the full length DPP8 cDNA of 3.1 kb was cloned into the Xba I site of pcDNA3.1A/V5/His expression vector; expressed in transfected cells; host or cells: COS-7 (monkey kidney fibroblast) cells; clarified sonicated cell extract
Details: above the levels of untransfected COS-7 cells; data not shown
Procedure: Monkey kidney fibroblast (COS-7) cells (American Type Culture Collection, CRL-1651) were grown and transfected as described previously. For making stable cell lines, Geneticin (G418; Gibco-BRL) was added to the medium, beginning 24 h after transfection. […] The presence of DPP8 fused with the V5 epitope was detected using an anti-V5 mAb (Invitrogen). […]
Residues, ends and D or L forms follow the SMILES beside them. *: point of attachment. pNA = O=[N+]([O-])c1ccc(N*)cc1
quantity: Hydrolysis of substrate by extracts of DPP8-transfected COS-7 cells

INSERT INTO measurements (compound, result) VALUES
  ('C[C@H](N)C(=O)N1CCC[C@H]1C(=O)Nc1ccc([N+](=O)[O-])cc1 [H-Ala-Pro-pNA] (H-Ala-Pro-pNA)', 'hydrolyzed'),
  ('NC(N)=NCCC[C@H](N)C(=O)N1CCC[C@H]1C(=O)Nc1ccc([N+](=O)[O-])cc1 [H-Arg-Pro-pNA] (H-Arg-Pro-pNA)', 'hydrolyzed');
